Catalogue of IC50 values
# system.name: Purified human plasmin, obtained from Enzyme Research Laboratories, Inc. (human, UniProt P00747 97-810, limits assumed)
# Sequence (P00747 97-810 limits assumed): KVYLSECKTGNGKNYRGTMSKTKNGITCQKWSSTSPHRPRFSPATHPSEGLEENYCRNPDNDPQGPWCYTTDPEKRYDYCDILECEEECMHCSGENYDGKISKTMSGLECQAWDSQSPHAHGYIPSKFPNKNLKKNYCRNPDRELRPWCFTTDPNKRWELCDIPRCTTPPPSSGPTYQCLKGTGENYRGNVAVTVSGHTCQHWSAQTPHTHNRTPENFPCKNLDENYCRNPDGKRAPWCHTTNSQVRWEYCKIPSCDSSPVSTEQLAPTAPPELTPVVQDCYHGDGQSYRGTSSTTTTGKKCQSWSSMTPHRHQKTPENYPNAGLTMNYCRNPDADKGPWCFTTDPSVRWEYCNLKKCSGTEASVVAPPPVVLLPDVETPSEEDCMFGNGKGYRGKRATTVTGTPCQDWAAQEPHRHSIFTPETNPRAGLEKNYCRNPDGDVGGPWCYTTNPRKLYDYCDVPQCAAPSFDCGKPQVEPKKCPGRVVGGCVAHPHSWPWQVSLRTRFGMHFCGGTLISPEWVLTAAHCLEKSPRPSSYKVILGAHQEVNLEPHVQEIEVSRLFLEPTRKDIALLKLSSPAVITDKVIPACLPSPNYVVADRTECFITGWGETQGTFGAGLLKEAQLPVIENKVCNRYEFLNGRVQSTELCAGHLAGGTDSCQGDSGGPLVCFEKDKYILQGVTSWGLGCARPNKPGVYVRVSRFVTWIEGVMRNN
# test.details: cell-based or functional assay
Non-standard residues stand in square brackets, D forms with d. Primed or numbered codes have the meaning given here. No end group written: not given here. *: point of attachment. cyclohexylmethylazacarbonyl = cyclohexylmethylazacarbonyl N-terminal cap, introduced with cyclohexylmethyl isocyanate, O=C(NCC1CCCCC1)*; benzylazacarbonyl = benzylazacarbonyl N-terminal cap (benzylaminocarbonyl), introduced with benzyl isocyanate, O=C(NCc1ccccc1)*; argininal = arginine aldehyde, N=C(N)NCCC[C@@H](C=O)N*; aldehyde′ = argininal (arginine aldehyde) C-terminus; Propanoyl(3-cHex) = O=C(CCC1CCCCC1)*; Isopropoxycarbonyl = CC(C)OC(=O)*; d(hSer) = N[C@H](CCO)C(=O)O; Isovaleryl = CC(C)CC(=O)*; Cbz = O=C(OCc1ccccc1)*

binder: Isopropoxycarbonyl-[dS]-Ala-[argininal] [isopropyloxycarbonyl-D-seryl-alanyl-argininal]
IC50: > 2500 nM

The reported IC50 of the binder cyclohexylmethylazacarbonyl-[dS]-Ala-[argininal] [cyclohexylmethylazacarbonyl-D-seryl-alanyl-argininal] was > 2500 nM

The reported IC50 of the binder benzylazacarbonyl-[dS]-Ala-Arg-{aldehyde′} [benzylazacarbonyl-D-seryl-alanyl-argininal] was > 2500 nM

The reported IC50 of the binder {Propanoyl(3-cHex)}-[dS]-Ala-Arg-{aldehyde′} [3-cyclohexylpropionyl-D-seryl-alanyl-argininal] was > 2500 nM

The reported IC50 of the binder Cbz-[d(hSer)]-Pro-[argininal] [benzyloxycarbonyl-D-homoseryl-prolyl-argininal] was < 100 nM

The reported IC50 of the binder Isovaleryl-[dS]-Ala-[argininal] [isovaleryl-D-seryl-alanyl-argininal] was > 2500 nM
